Source: patent US11247994B2

Biological target: TrxR/Trx-1 (Homo sapiens)
Sequence (P10599 2-105 limits assumed): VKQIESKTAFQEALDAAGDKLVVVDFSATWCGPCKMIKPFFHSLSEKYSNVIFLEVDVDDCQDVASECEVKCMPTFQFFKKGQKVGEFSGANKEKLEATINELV
Experiment: Ellman test, inhibition of TrxR/Trx-1 activity
Format: biochemical
Details: read-out: TrxR/Trx-1 IC50
Parameter IC50: see the listing below.
Outcome Measure: IC50 (µM)

* CC(C)SSc1nc(N)nc2c1ncn2[C@H]1C[C@H](O)[C@@H](CO)O1 | 4.26
* Nc1nc(SSCc2ccc(F)cc2)c2ncn(C3C[C@H](O)[C@@H](CO)O3)c2n1 (some centres unmarked) | 9.78

====

Experiment: Blood biochemical analysis and HE staining of tissues in HCT116 tumor-bearing nude mice
Type: in vivo
Conditions: tail vein once every two days, 12 times, blood 48 hours after the last treatment
Outcome Measure: Albumin (g/L)

* Nc1nc(SSCc2ccc(F)cc2)c2ncn(C3C[C@H](O)[C@@H](CO)O3)c2n1 (stereo partly drawn) [B] | 26.3
* CCC(C)SSc1ncc[nH]1 (stereo not drawn) [PX-12, 1-methylpropyl-2-imidazolyl disulfide, reference compound] | 33.0
* Nc1nc2c(ncn2[C@H]2C[C@H](O)[C@@H](CO)O2)c(=S)[nH]1 [Compound 6-thio-dG, 6-thio-2′-deoxyguanosine, reference compound] | 29.8
* CCC(C)SSc1nc(N)nc2c1ncn2C1C[C@H](O)[C@@H](CO)O1 (stereo partly drawn) [Compound A, 6-(sec-butyldithio)-2′-deoxyguanosine] | 24.8
* CC(C)SSc1nc(N)nc2c1ncn2[C@H]1C[C@H](O)[C@@H](CO)O1 [D, 6-(isopropyldithio)-2′-deoxyguanosine] | 25.0
* CC(C)(C)SSc1nc(N)nc2c1ncn2C1C[C@H](O)[C@@H](CO)O1 (stereo partly drawn) [Compound C, 6-(tert-butyldithio)-2′-deoxyguanosine] | 27.9
